The values you see were collected from ChEMBL document CHEMBL4002623.

log10 of CC50 at 48 h listing for selected molecules.
# test_method_notes: Cytotoxicity against HEK293T cells after 48 hrs by MTS assay
# Assay type: cell-based, HEK-293T
# settings: human
quantity_measured: log10 of CC50 at 48 h (log10 of the value in µg/mL)

- molecule: "CNC(=N)c1ccc2cc(-c3ccc(Oc4ccc(-c5cc6ccc(C(=N)NC)cc6[nH]5)cc4)cc3)[nH]c2c1"
  log10 of CC50 at 48 h: 1.09
- molecule: "CC(C)NC(=N)c1ccc2cc(-c3ccc(Oc4ccc(-c5cc6ccc(C(=N)NC(C)C)cc6[nH]5)cc4)cc3)[nH]c2c1"
  log10 of CC50 at 48 h: 0.86
- molecule: "N=C(NC1CCC1)c1ccc2cc(-c3ccc(Oc4ccc(-c5cc6ccc(C(=N)NC7CCC7)cc6[nH]5)cc4)cc3)[nH]c2c1"
  log10 of CC50 at 48 h: 1.51
- molecule: "c1cc(-c2cc3ccc(C4=NCCN4)cc3[nH]2)ccc1Oc1ccc(-c2cc3ccc(C4=NCCN4)cc3[nH]2)cc1"
  log10 of CC50 at 48 h: 0.23
- molecule: "CC1CCN(C(=N)c2ccc3cc(-c4ccc(Oc5ccc(-c6cc7ccc(C(=N)N8CCC(C)CC8)cc7[nH]6)cc5)cc4)[nH]c3c2)CC1"
  log10 of CC50 at 48 h: 0.51
- molecule: "c1cc(-c2cc3ccc(C4=NCCCN4)cc3[nH]2)ccc1Oc1ccc(-c2cc3ccc(C4=NCCCN4)cc3[nH]2)cc1"
  log10 of CC50 at 48 h: 1.63
- molecule: "N=C(c1ccc2cc(-c3ccc(Oc4ccc(-c5cc6ccc(C(=N)N7CCOCC7)cc6[nH]5)cc4)cc3)[nH]c2c1)N1CCOCC1"
  log10 of CC50 at 48 h: 0.69
- molecule: "N=C(NC1CCCCC1)c1ccc2cc(-c3ccc(Oc4ccc(-c5cc6ccc(C(=N)NC7CCCCC7)cc6[nH]5)cc4)cc3)[nH]c2c1"
  log10 of CC50 at 48 h: 1.77
- molecule: "CCC(CC)NC(=N)c1ccc2cc(-c3ccc(Oc4ccc(-c5cc6ccc(C(=N)NC(CC)CC)cc6[nH]5)cc4)cc3)[nH]c2c1"
  log10 of CC50 at 48 h: 1.40
- molecule: "N=C(NC1CCCC1)c1ccc2cc(-c3ccc(Oc4ccc(-c5cc6ccc(C(=N)NC7CCCC7)cc6[nH]5)cc4)cc3)[nH]c2c1"
  log10 of CC50 at 48 h: 1.46
- molecule: "CCCNC(=N)c1ccc2cc(-c3ccc(Oc4ccc(-c5cc6ccc(C(=N)NCCC)cc6[nH]5)cc4)cc3)[nH]c2c1"
  log10 of CC50 at 48 h: 1.42
- molecule: "CCNC(=N)c1ccc2cc(-c3ccc(Oc4ccc(-c5cc6ccc(C(=N)NCC)cc6[nH]5)cc4)cc3)[nH]c2c1"
  log10 of CC50 at 48 h: 1.56
- molecule: "CCC(C)NC(=N)c1ccc2cc(-c3ccc(Oc4ccc(-c5cc6ccc(C(=N)NC(C)CC)cc6[nH]5)cc4)cc3)[nH]c2c1 (stereo unspecified)"
  log10 of CC50 at 48 h: 1.61
- molecule: "CC1CC(C)CN(C(=N)c2ccc3cc(-c4ccc(Oc5ccc(-c6cc7ccc(C(=N)N8CC(C)CC(C)C8)cc7[nH]6)cc5)cc4)[nH]c3c2)C1 (stereo unspecified)"
  log10 of CC50 at 48 h: 0.41
- molecule: "N=C(c1ccc2cc(-c3ccc(Oc4ccc(-c5cc6ccc(C(=N)N7CCCCC7)cc6[nH]5)cc4)cc3)[nH]c2c1)N1CCCCC1"
  log10 of CC50 at 48 h: 0.40
- molecule: "N=C(NC1CC1)c1ccc2cc(-c3ccc(Oc4ccc(-c5cc6ccc(C(=N)NC7CC7)cc6[nH]5)cc4)cc3)[nH]c2c1"
  log10 of CC50 at 48 h: 1.57
